The measurements presented in this section are drawn from patent US20240043547A1.

tested_on: T1, human IL-31-His (human, UniProt Q6EBC2 24-164)
T1 construct: form captured via anti-His tag antibody in the SPR of the scFvs (sections 1.8 and 2.4); also called hIL-31; not shown: His tag
T1 sequence (looked up): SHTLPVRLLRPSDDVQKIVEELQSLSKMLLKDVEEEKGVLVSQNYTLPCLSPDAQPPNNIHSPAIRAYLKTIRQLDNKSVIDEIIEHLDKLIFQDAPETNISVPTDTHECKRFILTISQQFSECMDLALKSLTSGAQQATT
assay_comment: SPR (Biacore T200), human IL-31-His captured via anti-His antibody, scFv as analyte
Procedure: After each analyte injection cycle the sensor chip was regenerated and new antigen was captured. The scFvs were measured using a dose response multi-cycle kinetic assay in a high-throughput mode with two concentrations (30 and 10 nM) diluted in running buffer. Obtained sensorgrams were fitted using a 1:1 binding model. The scFvs were measured using a dose response multi-cycle kinetic assay in a high-throughput mode with two concentrations (30 and 10 nM) diluted in running buffer. […]
value_kind: kon (M⁻¹ s⁻¹)
Quick reminder: number only, in M⁻¹ s⁻¹, skip the unit.

Challenge: Consider the binder shown here: PRO1901 (scFv, scFv (VL-linker-VH); variant of PRO1643 with VH L12S, V103T, L144Q (AHo numbering); also called 50-09-D07-sc05) scFv: AFQLTQSPSSLSASVGDRVTITCQASQSIDSWLAWYQQKPGKPPKLLIYQASKLASGVPSRFSGSGSGTDYTLTISSLQPEDFATYYCQTYYGGGHIGWGFGTGTKVTVLGGGGGSGGGGSGGGGSGGGGSQSQLVESGGGSVQPGGSLRLSCAASGFSFSANYWICWVRQAPGKGLEWIVCIYIGSRADTYYAPWAKGRFTISKDNSKNTVYLQMNSLRAEDTATYFCARFSSGIYDLDRFFLWGQGTQVTVSS What is its recorded kon?
Response given: 591000
